Data origin, for the record: patent US20160145328A1

Target: T1, protein A (UniProt P38507 37-477)
T1 construct: also called Protein A superantigen
Assay: Heat/Cool phage ELISA on protein A; signal after 80 C 10 min / 4 C 10 min as % of untreated sample
Measurement Kind: Retained binding (%) after heating
Write down the numeric answer in % and omit the unit.

A selection of reference data follows.
Binder	Endpoint Unit	Retained binding (%) after heating
VHPRLR_C02 (anti-hPRLR VH) (other, Human VH single domain antibody from the Garvan-2 library) VH: EVQLLESGGGLVQPGGSLRLSCAASGFRFADEDMGWVRQAPGKGLEWVSDISGDGYSTYYADSVKGRFTISRDNSKNTLYLQMNSLRAEDTAVYYCAKLPPVYLGGAFDYWGQGTLVTVSS	%	98.8
VHHEL_G08 (anti-HEL VH) (other) VH: EVQLLESGGGLVQPGGSLRLSCAASGFRISDEDMGWVRQAPGKGLEWVSYIDNNGYSTYYADSVKGRFTISRDNSKNTLYLQMNSLRAEDTAVYYCAKKQYGYQNGGFDYWGQGTLVTVSS	%	83.8
VHHEL_H04 (anti-HEL VH) (other, Human VH single domain antibody from the Garvan-2 library) VH: EVQLLESGGGLVQPGGSLRLSCAASGFRFDAEDMGWVRQAPGKGLEWVSSIYGPSGSTYYADSVKGRFTISRDNSKNTLYLQMNSLRAEDTAVYYCAKYTSPPQNHGFDYWGQGTLVTVSS	%	87.8

Let's switch to this binder now.
In plain terms, HEL4 VH (other) VH: QVQLLESGGGLVQPGGSLRLSCAASGFRISDEDMGWVRQAPGKGLEWVSSIYGPSGSTYYADSVKGRFTISRDNSKNTLYLQMNSLRAEDTAVYYCASALEPLSEPLGFWGQGTLVTVSS has a documented Retained binding (%) after heating of 88.1
